Values from patent US4977152A

Target chain: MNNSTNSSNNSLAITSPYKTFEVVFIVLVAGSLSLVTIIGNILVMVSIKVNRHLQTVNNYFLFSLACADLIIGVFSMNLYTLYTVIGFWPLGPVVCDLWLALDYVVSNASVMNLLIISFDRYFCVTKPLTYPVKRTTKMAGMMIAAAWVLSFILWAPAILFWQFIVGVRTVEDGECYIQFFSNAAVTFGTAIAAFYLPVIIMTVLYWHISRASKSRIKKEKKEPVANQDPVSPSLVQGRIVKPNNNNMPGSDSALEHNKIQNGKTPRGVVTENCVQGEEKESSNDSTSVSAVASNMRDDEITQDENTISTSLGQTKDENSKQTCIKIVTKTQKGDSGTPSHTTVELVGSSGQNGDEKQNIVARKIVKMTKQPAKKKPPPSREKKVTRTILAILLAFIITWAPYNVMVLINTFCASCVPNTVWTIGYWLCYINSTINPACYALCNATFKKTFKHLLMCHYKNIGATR
Structures can show the parent of a compound that is named as a salt.
measured.quantity: log10(IC50) (log10 of the value in µM)

>>> print(df.to_string())
                                    compound  quantitative_readout
 0  Cl.Cl.c1ccc2c(c1)CCCc1cc(NCCN3CCOCC3)nnc1-2 [SR 95639 A, dihydrochloride]                  1.74
 1  CCN(CC)CCNc1cc2c(nn1)-c1cc(C)c(C)cc1CCCC2.Cl.Cl [SR 44703 A, dihydrochloride]                  0.60
 2  CCN1CCCC1CNc1cc2c(nn1)-c1ccccc1CCC2 (stereo not shown) [SR 95879 A, dihydrochloride]                  0.00
 3  CCCCN(CCCC)CCNc1cc2c(nn1)-c1cc(C)c(C)cc1CCC2                  1.48
 4  CCN(CC)CCNc1cc2c(nn1)-c1cc(C)c(C)cc1CCC2.Cl.Cl [SR 44663 A, dihydrochloride]                  0.70
 5  CCN(CC)CCNc1cc2ccc3ccccc3c2nn1.Cl.Cl [SR 96055 A, dihydrochloride]                  1.23
 6  CCN(CC)CCNc1cc2c(nn1)-c1cc(Cl)ccc1CCC2.Cl.Cl [SR 95878 A, dihydrochloride]                  0.04
 7  CCN(CC)CCNc1cc2c(nn1)-c1cc(Cl)c(Cl)cc1CCC2.Cl.Cl [SR 44695 A, dihydrochloride]                  0.65
 8  CC(C)N(CCNc1cc2c(nn1)-c1cc([N+](=O)[O-])ccc1CCC2)C(C)C                  0.48
 9       CCN(CC)CCCNc1cc2c(nn1)-c1ccccc1CCC2                  1.08
10  CCN(CC)CCNc1cc2c(nn1)-c1cc(N)ccc1CCC2 [SR 95776 A, dihydrochloride]                  0.30
11  Cl.Cl.O=[N+]([O-])c1cccc2c1CCCc1cc(NCCN3CCOCC3)nnc1-2 [SR 96100 A, dihydrochloride]                  1.64
12  CCN(CC)CCSc1cc2c(nn1)-c1ccccc1CC2.Cl [SR 95743 A, hydrochloride]                  1.00
13  Cl.Cl.Fc1ccc2c(c1)CCCc1cc(NCCN3CCOCC3)nnc1-2 [SR 96108 A, dihydrochloride]                  1.60
14  CN(C)CCOc1cc2c(nn1)-c1ccccc1CC2.Cl [SR 95745 A, hydrochloride]                  1.90
15  Cc1cc2c(cc1C)-c1nnc(NCCN(C(C)C)C(C)C)cc1CCC2                  0.30
